Listed here: items and their measured combination Emax.
System: GAK (Melanoma)
protocol: combination Emax (second highest fraction inhibited in the dose matrix, 72 h); higher = more inhibition; extreme values may be limits of the assay

{"columns": ["molecule", "combination Emax"],
 "data": [
  ["Cc1cc2ncnn2cc1Nc1ncc2c(n1)n(C1CCOCC1)c(=O)n2C [AZD7648] + C=CCn1c(=O)c2cnc(Nc3ccc(N4CCN(C)CC4)cc3)nc2n1-c1cccc(C(C)(C)O)n1 [AZD1775] (first compound max 10 µM, partner max 1 µM)", 0.713],
  ["CC(=O)Nc1cccc(-n2c(=O)n(C3CC3)c(=O)c3c(Nc4ccc(I)cc4F)n(C)c(=O)c(C)c32)c1 [Trametinib] + Cc1nc(-c2cn3c(n2)-c2ccc(-c4cnn(C(C)(C)C(N)=O)c4)cc2OCC3)n(C(C)C)n1 [Taselisib] (first compound max 1 µM, 7x7, partner max 10 µM)", 0.985]
]}
